# credit: patent US9783536B2

Some molecules, each annotated with its measured pIC50.
# Tested Target: human PI3Kα protein (Homo sapiens, UniProt P42336)
# Construct: purchased Carna Biosciences, Inc; host or cells: baculovirus expression system
# Sequence (P42336 whole entry): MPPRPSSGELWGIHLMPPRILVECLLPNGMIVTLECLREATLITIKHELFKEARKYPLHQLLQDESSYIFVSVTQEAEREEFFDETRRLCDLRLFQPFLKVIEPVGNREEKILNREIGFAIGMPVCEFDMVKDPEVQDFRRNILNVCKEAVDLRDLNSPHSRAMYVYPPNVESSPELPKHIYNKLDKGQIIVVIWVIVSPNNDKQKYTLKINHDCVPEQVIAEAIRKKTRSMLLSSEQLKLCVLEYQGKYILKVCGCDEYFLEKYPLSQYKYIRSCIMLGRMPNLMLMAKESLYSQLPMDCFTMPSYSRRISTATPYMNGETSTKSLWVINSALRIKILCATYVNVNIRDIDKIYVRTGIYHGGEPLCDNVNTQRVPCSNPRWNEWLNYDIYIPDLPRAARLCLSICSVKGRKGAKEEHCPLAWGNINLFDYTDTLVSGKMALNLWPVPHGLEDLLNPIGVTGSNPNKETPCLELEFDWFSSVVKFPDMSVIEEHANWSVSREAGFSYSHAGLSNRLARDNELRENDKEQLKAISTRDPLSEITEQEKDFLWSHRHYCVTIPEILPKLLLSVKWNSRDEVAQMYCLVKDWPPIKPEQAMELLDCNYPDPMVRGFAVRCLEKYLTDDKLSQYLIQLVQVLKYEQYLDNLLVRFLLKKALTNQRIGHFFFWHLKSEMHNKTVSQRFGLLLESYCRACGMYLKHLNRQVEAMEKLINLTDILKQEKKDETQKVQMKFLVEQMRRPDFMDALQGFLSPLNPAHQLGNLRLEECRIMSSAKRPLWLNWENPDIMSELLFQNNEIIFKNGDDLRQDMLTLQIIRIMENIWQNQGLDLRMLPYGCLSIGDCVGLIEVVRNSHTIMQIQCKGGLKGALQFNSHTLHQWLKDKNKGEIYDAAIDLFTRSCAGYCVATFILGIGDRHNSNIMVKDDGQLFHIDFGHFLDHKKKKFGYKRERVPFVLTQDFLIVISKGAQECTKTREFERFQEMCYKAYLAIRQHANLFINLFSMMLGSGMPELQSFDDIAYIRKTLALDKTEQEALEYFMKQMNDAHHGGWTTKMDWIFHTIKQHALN
# Sequence (P27986 whole entry partner): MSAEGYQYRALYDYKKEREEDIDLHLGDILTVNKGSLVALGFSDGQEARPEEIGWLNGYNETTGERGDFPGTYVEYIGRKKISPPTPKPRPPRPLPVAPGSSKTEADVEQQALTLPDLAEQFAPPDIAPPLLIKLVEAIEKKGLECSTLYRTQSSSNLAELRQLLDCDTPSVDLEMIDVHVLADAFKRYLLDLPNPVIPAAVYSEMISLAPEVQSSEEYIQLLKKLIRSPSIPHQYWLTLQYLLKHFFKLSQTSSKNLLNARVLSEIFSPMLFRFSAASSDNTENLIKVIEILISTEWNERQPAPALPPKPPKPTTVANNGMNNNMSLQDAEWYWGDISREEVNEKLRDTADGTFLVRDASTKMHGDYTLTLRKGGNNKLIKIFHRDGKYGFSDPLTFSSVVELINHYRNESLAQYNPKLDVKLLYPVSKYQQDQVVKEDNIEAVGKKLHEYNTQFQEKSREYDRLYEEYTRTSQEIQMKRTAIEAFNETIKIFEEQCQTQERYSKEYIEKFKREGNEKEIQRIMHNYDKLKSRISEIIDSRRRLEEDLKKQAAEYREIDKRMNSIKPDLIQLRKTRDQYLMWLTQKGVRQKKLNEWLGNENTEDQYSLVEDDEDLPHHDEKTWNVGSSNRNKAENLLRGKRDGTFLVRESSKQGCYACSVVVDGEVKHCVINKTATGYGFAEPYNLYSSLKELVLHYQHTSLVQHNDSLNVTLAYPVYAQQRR
# Assay Notes: PI3Kα enzyme assay (ADP-Glo)
# Format: biochemical
# Protocol Conditions: read-out: PI3Kα enzyme inhibitory activity
pIC50: −log10 of the molar value.

{"Structure Smiles String": "CC(C)c1nnc(Nc2ccc3ncc(-c4cn(C)nc4-c4cnn(C)c4)cc3n2)s1", "pIC50": "> 6.00"}
{"Structure Smiles String": "O[C@H]1CCN(c2cnc3ccc(Nc4nnc(C5CCCC5)s4)nc3c2)C1", "pIC50": "5.00 to 6.00"}
{"Structure Smiles String": "COc1cccc(OCc2nn(C)cc2-c2cnc3ccc(Nc4cc(C(C)C)cnn4)nc3c2)c1", "pIC50": "> 6.00"}
{"Structure Smiles String": "CC(C)c1cnnc(Nc2ccc3ncc(-c4cnn(CCCN5CCOCC5=O)c4)cc3n2)c1", "pIC50": "> 6.00"}
{"Structure Smiles String": "CC(=O)c1ccc(Cn2cc(-c3cnc4ccc(Nc5cc(C(C)C)cnn5)nc4c3)cn2)cc1", "pIC50": "> 6.00"}
{"Structure Smiles String": "CC(C)c1cnnc(Nc2ccc3ncc(-c4cnn(C)c4)c(Cl)c3n2)c1", "pIC50": "> 6.00"}
{"Structure Smiles String": "Cc1ccc(S(=O)(=O)NC2CN(CCCn3cc(-c4cnc5ccc(Nc6cc(C(C)C)cnn6)nc5c4)cn3)C2)cc1", "pIC50": "> 6.00"}
{"Structure Smiles String": "COc1ncccc1-c1cnc2ccc(Nc3cc(C(C)C)cnn3)nc2c1", "pIC50": "5.00 to 6.00"}

###

Catalogue of IC50 values
# Tested Target: human PI3Kα protein (Homo sapiens)
# Construct: purchased Carna Biosciences, Inc; host or cells: baculovirus expression system
# Assay Notes: PI3Kα enzyme assay (ADP-Glo)
# Type: biochemical
# Protocol Conditions: read-out: PI3Kα enzyme inhibitory activity
# Procedure: In a PI3Kα enzyme assay, a product (manufactured by Carna Biosciences, Inc.) obtained by biotinylating a human PI3Kα protein produced by using a baculovirus expression system was used. […] The inhibitory activities of the compounds were evaluated using IC50 (50% inhibitory concentration). The IC50 was calculated using XLFIT (trade name, manufactured by ID Business Solutions).
Parameter: IC50

{"Compound": "CC(C)c1cnnc(Nc2ccc3ncc(-c4cnn(CCCN5CC6CC(C5)O6)c4)cc3n2)c1", "Parameter": "IC50", "Reading": "< 1000 nM"}
{"Compound": "CC(C)c1cnnc(Nc2ccc3ncc(-c4cnn(Cc5ccc(N)cc5)c4)cc3n2)c1", "Parameter": "IC50", "Reading": "< 1000 nM"}
{"Compound": "COCCCn1cc(-c2cnc3ccc(Nc4nnc(C5CCCC5)s4)nc3c2)cn1", "Parameter": "IC50", "Reading": "< 1000 nM"}
{"Compound": "Cc1ncccc1-c1cnc2ccc(Nc3cc(C(C)C)cnn3)nc2c1", "Parameter": "IC50", "Reading": "1000 to 10000 nM"}
{"Compound": "CC(C)Oc1c(-c2cnn(C)c2)cnc2ccc(Nc3nnc(C4CCCC4)s3)nc12", "Parameter": "IC50", "Reading": "< 1000 nM"}
{"Compound": "COC1CCN(c2cnc3ccc(Nc4cc(C(C)C)cnn4)nc3c2)C1 (centres unmarked)", "Parameter": "IC50", "Reading": "1000 to 10000 nM"}
{"Compound": "CC(C)c1cnnc(Nc2ccc3ncc(-c4cnn(CCCN5CC(F)C5)c4)cc3n2)c1", "Parameter": "IC50", "Reading": "< 1000 nM"}
{"Compound": "CC(C)c1nnc(Nc2ccc3nccc(-c4cn[nH]c4)c3n2)s1", "Parameter": "IC50", "Reading": "< 1000 nM"}
